Molecular target: P2X7 (Homo sapiens (Human), UniProt Q99572)
Sequence (Q99572 whole entry): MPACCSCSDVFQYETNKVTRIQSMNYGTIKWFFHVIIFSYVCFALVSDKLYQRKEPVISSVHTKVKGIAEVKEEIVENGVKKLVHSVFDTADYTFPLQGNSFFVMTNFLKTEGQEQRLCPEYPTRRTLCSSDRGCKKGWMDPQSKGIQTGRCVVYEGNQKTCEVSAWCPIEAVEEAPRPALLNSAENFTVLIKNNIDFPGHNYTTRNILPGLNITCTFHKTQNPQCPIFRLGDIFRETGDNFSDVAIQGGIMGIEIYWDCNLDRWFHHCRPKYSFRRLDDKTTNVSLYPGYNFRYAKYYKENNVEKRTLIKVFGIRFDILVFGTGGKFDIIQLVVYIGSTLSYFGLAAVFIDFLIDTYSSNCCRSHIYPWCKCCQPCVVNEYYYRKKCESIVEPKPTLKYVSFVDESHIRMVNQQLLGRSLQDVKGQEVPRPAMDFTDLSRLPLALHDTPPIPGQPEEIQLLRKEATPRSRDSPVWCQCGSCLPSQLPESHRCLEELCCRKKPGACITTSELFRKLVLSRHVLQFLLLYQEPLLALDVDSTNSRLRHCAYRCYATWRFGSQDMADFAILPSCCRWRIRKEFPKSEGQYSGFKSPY
Assay: P2X7 antagonism in human peripheral blood mononuclear cells (PBMCs), IL-1β release (LPS + Bz-ATP, ELISA)
Type: cell-based
Conditions: P2X7, 10 μM test compound, LPS 30 ng/ml + Bz-ATP 0.5 mM, read-out: PBMC @10 μM (% control)
observed-property: remaining activity at 10 µM (%)

* Cc1nc(-c2ccn[nH]2)c2c(n1)C1CCCC(C2)N1C(=O)c1cccc(C(F)(F)F)c1Cl (stereo not shown) [Example 2] | 1.1
* Cc1nc(-c2ccn[nH]2)c2c(n1)[C@@H]1CCC[C@H](C2)N1C(=O)c1cccc(C(F)(F)F)c1Cl [Example 3] | 22
* Cc1nc(-c2ccn[nH]2)c2c(n1)[C@H]1CCC[C@@H](C2)N1C(=O)c1ccc(Cl)c(F)c1Cl [Example 23] | -24.7
* Cc1nc(-c2ncccn2)c2c(n1)[C@H]1CCC[C@@H](C2)N1C(=O)c1cccc(C(F)(F)F)c1C [Example 43] | 15
